# measured-target: human HHLA2 over-expressed on 300.19 mouse pre-B leukemic cells (human) (UniProt Q9UM44)
# Sequence (Q9UM44 23-414): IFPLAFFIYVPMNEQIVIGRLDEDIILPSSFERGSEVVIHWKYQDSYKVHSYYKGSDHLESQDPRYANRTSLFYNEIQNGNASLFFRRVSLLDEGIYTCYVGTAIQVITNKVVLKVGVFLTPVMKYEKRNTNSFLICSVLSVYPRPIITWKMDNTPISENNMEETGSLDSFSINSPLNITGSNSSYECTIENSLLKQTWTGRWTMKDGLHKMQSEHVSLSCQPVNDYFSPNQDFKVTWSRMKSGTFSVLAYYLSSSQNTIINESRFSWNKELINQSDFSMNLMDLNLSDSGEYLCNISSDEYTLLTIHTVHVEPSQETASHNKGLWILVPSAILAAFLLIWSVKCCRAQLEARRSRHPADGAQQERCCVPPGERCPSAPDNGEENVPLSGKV
# procedure-summary: flow cytometry on 300.19 cells over-expressing human HHLA2, antibody titration, gMFI (aHu-APC)
Measured EC50 (read off the curve) accompanies every entry in the list below.

binder: Ab-65890 (antibody, human IgG1, V domains shown, tested as IgG) VH: QVQLVQSGAEVKKPGASVKVSCKASGYTFNSYRMHWVRQAPGQRLEWMGSIPAGTGNTVYSQKFQGRVTITRDTSASTAYMELSSLRSEDTAVYYCARDRGGYYYDSWDDWGQGTLVTVSS VL: DIQMTQSPSSLSASVGDRVTITCRASQSISSYLNWYQQKPGKAPKLLIYGASSLQSGVPSRFSGSGSGTDFTLTISSLQPEDFATYYCQQVPFEPPTFGGGTKVEIK
EC50 (read off the curve): 0.1 µg/mL
//
binder: Ab-65885 (antibody, human IgG1, kappa, V domains shown, tested as IgG) VH: QVQLVQSGAEVKKPGASVKVSCKASGYTFDSYKMHWVRQAPGQRLEWMGYIPAGTGNTKYSQKFQGRVTITRDTSASTAYMELSSLRSEDTAVYYCARDRGGYYYDSWDDWGQGTLVTVSS VL: DIQMTQSPSSLSASVGDRVTITCRASQSISSYLNWYQQKPGKAPKLLIYGASSLQSGVPSRFSGSGSGTDFTLTISSLQPEDFATYYCQQVAFTPPTFGGGTKVEIKR
EC50 (read off the curve): 0.1 µg/mL
//
binder: Ab-65889 (antibody, human IgG1, kappa, V domains shown, tested as IgG) VH: QVQLVQSGAEVKKPGASVKVSCKASGYTFASYKMHWVRQAPGQRLEWMGDIPAGTGNTHYSQKFQGRVTITRDTSASTAYMELSSLRSEDTAVYYCARDRGGYYYDSWDDWGQGTLVTVSS VL: DIQMTQSPSSLSASVGDRVTITCRASQSISSYLNWYQQKPGKAPKLLIYGASSLQSGVPSRFSGSGSGTDFTLTISSLQPEDFATYYCQQVPFEPPTFGGGTKVEIKR
EC50 (read off the curve): 0.1 µg/mL

FYI, the data here is from patent US20250270323A1.
